FYI, the data here is from patent US4933347A.

system: Pneumocystis carinii; test: Treatment of Pneumocystis carinii pneumonia in Sprague-Dawley rats (extent of disease by histologic score); format: in vivo, male Sprague-Dawley rats; conditions: 10 mg/kg i.v. daily, 14 days; 1 = scattered cysts, <5% of lung involved
compounds and their reported Extent of Disease by Histologic Score: number of animals with score 1
quantity: Extent of Disease by Histologic Score: number of animals with score 1 (animals)

[
  {
    "compound": "N=C(N)c1ccc(NCCCCCNc2ccc(C(=N)N)cc2)cc1 [Example 17]",
    "result-value": 2
  },
  {
    "compound": "N=C(N)c1ccc(NCCNc2ccc(C(=N)N)cc2N)c(N)c1 [Example 33]",
    "result-value": 0
  },
  {
    "compound": "N=C(N)c1cccc(OCCCCOc2cccc(C(=N)N)c2)c1 [Example 27]",
    "result-value": 1
  },
  {
    "compound": "N=C(N)c1ccc(OCCCOc2ccc(C(=N)N)cc2N)c(N)c1 [Example 5]",
    "result-value": 4
  },
  {
    "compound": "N=C(N)c1cccc(OCCCOc2cccc(C(=N)N)c2)c1 [Example 26]",
    "result-value": 1
  },
  {
    "compound": "N=C(N)c1ccc(NCCCNc2ccc(C(=N)N)cc2N)c(N)c1 [Example 36]",
    "result-value": 4
  },
  {
    "compound": "N=C(N)c1ccc(OCCCCOc2ccc(C(=N)N)cc2N)c(N)c1 [Example 10]",
    "result-value": 5
  },
  {
    "compound": "N=C(N)c1ccc(OCCOc2ccc(C(=N)N)cc2N)c(N)c1 [Example 3]",
    "result-value": 4
  },
  {
    "compound": "N=C(N)c1cccc(OCCCCCCOc2cccc(C(=N)N)c2)c1 [Example 29]",
    "result-value": 4
  },
  {
    "compound": "N=C(N)c1ccc(NCCCCCNc2ccc(C(=N)N)cc2N)c(N)c1 [Example 19]",
    "result-value": 2
  }
]

###

molecules and their reported Extent of Disease by Histologic Score: number of animals with score 0.5
Test system: Pneumocystis carinii
Experiment: Treatment of Pneumocystis carinii pneumonia in Sprague-Dawley rats (extent of disease by histologic score)
Format: in vivo, male Sprague-Dawley rats
Conditions: 5 mg/kg i.v. daily, 14 days; 0.5 = <10 cysts found per 2 sections
Procedure: Induction and Treatment Of Pneumocystis Carinii in Sprague-Dawley Rats Male Sprague-Dawley rats, barrier raised, non-certified virus free, weighing 150-200g were obtained from Hilltop Laboratories and housed individually. Animals were begun on a low (8%) protein diet (ICN Biomedicals, Cincinnati, OH) and drinking water containing tetracycline (0.5 mg/ml) and dexamethasone (1.0 μg/ml) immediately upon arrival. […]
quantity: Extent of Disease by Histologic Score: number of animals with score 0.5 (animals)

[
  {
    "molecule": "COc1cc(C(=N)N)ccc1OCCCOc1ccc(C(=N)N)cc1OC [Example 6]",
    "units-of-measure": "animals",
    "result-value": 7
  },
  {
    "molecule": "N=C(N)c1ccc(OCCCCCCOc2ccc(C(=N)N)cc2N)c(N)c1 [Example 22]",
    "units-of-measure": "animals",
    "result-value": 0
  },
  {
    "molecule": "N=C(N)c1ccc(NCCCCCNc2ccc(C(=N)N)cc2[N+](=O)[O-])c([N+](=O)[O-])c1 [Example 18]",
    "units-of-measure": "animals",
    "result-value": 1
  },
  {
    "molecule": "COc1cc(C2=NCCN2)ccc1OCCCCCOc1ccc(C2=NCCN2)cc1OC [Example 43]",
    "units-of-measure": "animals",
    "result-value": 1
  }
]
